Tested on: UACC-257 melanoma
test_protocol: NCI-60 one-dose screen, 48 h
assay_context: 10 µM unless noted
About 83,000 compounds went through this panel and 20% of them were active in at least one assay; those are over-represented in the sample as a whole. The source made the active and inactive calls. The calls were made as follows: active = growth percent below 10; inactive = the rest.
Select the correct class. Options are TRUE for active, FALSE for inactive and nothing else.

// query State the result this test recorded for CCOC(=O)Oc1c(OC)cc(C(=O)O[C@@H]2C[C@@H]3CN4CCc5c([nH]c6cc(OC)ccc56)[C@H]4C[C@@H]3[C@H](C(=O)OC)[C@H]2OC)cc1OC .
// result FALSE

// query And then Clc1ccc2c(c1)c(-c1ccccc1)nc1nncn12 , what is it?
// result FALSE

// query Continue with CC1(C)CCCN1CCCN1c2ccccc2Sc2ccc(Cl)cc21
// result FALSE

// query # repeat for O=S(=O)(NCCNc1nccc(-c2c(-c3ccc(F)c(O)c3)nc3occn23)n1)c1ccccc1
// result FALSE

// query Would you kindly repeat that for COc1cc(C2CC(c3cccc(Nc4ccncc4)c3)=NN2c2ccccc2)cc(OC)c1OC (configuration not stated) ?
// result TRUE

// query Next molecule: COc1ccc(-c2nc(SC)nc(N3CCOCC3)c2C#N)cc1
// result FALSE

// query Same lookup for Cc1ccc(-c2csc(/N=C3\C(=O)Nc4ccccc43)n2)cc1 , please.
// result FALSE

// query And then CC1(C)CN(Cc2ccccc2)CCN1Cc1ccccc1 , what is it?
// result FALSE

// query Entry CC[C@H](C)[C@@H]1NC(=O)[C@H](Cc2ccc(O)cc2)N(C)C(=O)[C@H](Cc2ccccc2)NC(=O)CN(C)C(=O)[C@@H]2CCCN2C(=O)[C@@H](Cc2ccccc2)N(C)C(=O)[C@H](CC(C)C)NC1=O please
// result TRUE

// query Another molecule to check: COc1ccc(C(=O)c2cc3c(N)c(C(=O)Nc4cccc(Br)c4C)sc3nc2C)cc1
// result FALSE

// query Now the same for CCOC(=O)c1c(O)cc(-c2ccccc2)cc1-c1sc(N(C)Cc2ccccc2)nc1Cl
// result FALSE
